Biological target: T1, human GFRα3 expressed with a C-terminal myc-myc-hexahistidine tag (human, UniProt O60609 32-374, biotinylated (sites not given) in ELISA format 2 and in the Octet cross-competition; not in SPR)
T1 construct: also called hGFRα3-mmh; hGFRα3-mmH
T1 sequence (O60609 other isoform, or with tags, fused parts or gaps limits assumed): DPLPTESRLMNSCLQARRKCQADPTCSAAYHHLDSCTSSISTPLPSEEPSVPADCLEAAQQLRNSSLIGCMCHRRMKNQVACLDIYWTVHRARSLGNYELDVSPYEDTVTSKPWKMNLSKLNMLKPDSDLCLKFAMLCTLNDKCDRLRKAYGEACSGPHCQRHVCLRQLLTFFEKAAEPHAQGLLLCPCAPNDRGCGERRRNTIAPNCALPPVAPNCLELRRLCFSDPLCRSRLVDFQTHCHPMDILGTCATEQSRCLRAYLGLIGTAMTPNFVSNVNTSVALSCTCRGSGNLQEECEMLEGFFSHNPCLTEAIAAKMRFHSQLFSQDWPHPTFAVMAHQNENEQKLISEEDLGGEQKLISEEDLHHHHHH
Assay: Octet cross-competition; biotin-hGFRα3-mmH pre-saturated with first antibody H4H2294S
Catalogue of binding response of second antibody (nm) readings, one per entry.
Field: numeric (nm). Do not append units.

Answered examples (2):
binder	uom	binding response of second antibody (nm)
H4H2295S (antibody, human IgG4, V domains shown, human IgG4 Fc (H4H)) VH: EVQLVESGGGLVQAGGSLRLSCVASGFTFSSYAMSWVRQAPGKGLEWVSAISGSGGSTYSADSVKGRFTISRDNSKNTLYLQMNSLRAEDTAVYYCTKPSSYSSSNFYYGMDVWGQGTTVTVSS VL: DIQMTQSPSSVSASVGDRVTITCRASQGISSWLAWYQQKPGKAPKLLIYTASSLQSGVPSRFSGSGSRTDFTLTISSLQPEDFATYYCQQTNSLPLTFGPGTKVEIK	nm	0.04
H4H2357S (antibody, human IgG4, V domains shown, human IgG4 Fc (H4H)) VH: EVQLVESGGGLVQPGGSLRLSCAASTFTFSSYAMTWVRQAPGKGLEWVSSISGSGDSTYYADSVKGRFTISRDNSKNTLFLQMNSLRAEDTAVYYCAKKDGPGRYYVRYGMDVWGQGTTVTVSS VL: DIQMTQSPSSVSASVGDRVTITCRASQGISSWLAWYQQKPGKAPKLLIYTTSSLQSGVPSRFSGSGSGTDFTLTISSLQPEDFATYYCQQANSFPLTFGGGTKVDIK	nm	0.03

Inquiry: Record request: binding response of second antibody (nm) value, item H4H2342P (antibody, human IgG4, V domains shown, human IgG4 Fc (H4H)) VH: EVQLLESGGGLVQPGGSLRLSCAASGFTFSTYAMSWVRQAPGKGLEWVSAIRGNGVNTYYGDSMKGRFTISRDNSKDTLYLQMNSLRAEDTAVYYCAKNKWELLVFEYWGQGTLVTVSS VL: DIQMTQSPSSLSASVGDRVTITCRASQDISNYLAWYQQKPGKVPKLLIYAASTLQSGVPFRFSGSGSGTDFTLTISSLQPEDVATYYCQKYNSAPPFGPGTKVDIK
Reply text: 0.01
